Ref: the supplement of paper PMC10307832

- Tested on: PC-3 [JPC-3]
- ASSAY OVERVIEW: relative viability (nuclei count vs DMSO), 5 days (fraction); higher = more cells survive
- DETAILS: first compound 0.1265 µM
Exercise: for every item that follows, state its recorded relative viability.
Answers are plain numbers.

Worked examples, 6 compounds total:
COMPOUND	relative viability
Clc1ccc(Nc2nnc(Cc3ccncc3)c3ccccc23)cc1 [Vatalanib] + NC(=O)Nc1cc(-c2cccc(F)c2)sc1C(=O)N[C@H]1CCCNC1 [AZD7762] (partner 0.2 µM)	0.751
C[C@@H]1CN(CC(=O)Nc2ccc3c(c2)Cc2cccc(-c4cc(=O)cc(N5CCOCC5)o4)c2S3)C[C@H](C)O1 + CC1(C)CCC(c2ccc(Cl)cc2)=C(CN2CCN(c3ccc(C(=O)NS(=O)(=O)c4ccc(N[C@H](CCN5CCOCC5)CSc5ccccc5)c(S(=O)(=O)C(F)(F)F)c4)cc3)CC2)C1 [Navitoclax] (partner 0.5 µM)	0.795
C[C@@H]1CN(CC(=O)Nc2ccc3c(c2)Cc2cccc(-c4cc(=O)cc(N5CCOCC5)o4)c2S3)C[C@H](C)O1 + Nc1ncn([C@H]2C[C@H](O)[C@@H](CO)O2)c(=O)n1 [Decitabine] (partner 2 µM)	0.841
C[C@@H]1CN(CC(=O)Nc2ccc3c(c2)Cc2cccc(-c4cc(=O)cc(N5CCOCC5)o4)c2S3)C[C@H](C)O1 + CC(=O)Nc1cccc(-n2c(=O)n(C3CC3)c(=O)c3c(Nc4ccc(I)cc4F)n(C)c(=O)c(C)c32)c1 [Trametinib] (partner 0.02 µM)	0.665
COc1cc(N2CCC(C(N)=O)CC2)ccc1Nc1nc(N)c(Cl)c(Nc2ccccc2S(=O)(=O)C(C)C)n1 [HG-5-88-01] + CCNC(=O)c1noc(-c2cc(C(C)C)c(O)cc2O)c1-c1ccc(CN2CCOCC2)cc1 [Luminespib] (partner 0.01 µM)	0.656
Clc1ccc(Nc2nnc(Cc3ccncc3)c3ccccc23)cc1 [Vatalanib] + Cc1nc(NC(=O)N2CCC[C@H]2C(N)=O)sc1-c1ccnc(C(C)(C)C(F)(F)F)c1 [Alpelisib] (partner 2 µM)	0.972

Turning now to a further compound:
Give reported relative viability value for Clc1ccc(Nc2nnc(Cc3ccncc3)c3ccccc23)cc1 [Vatalanib] + CCNC(=O)c1noc(-c2cc(C(C)C)c(O)cc2O)c1-c1ccc(CN2CCOCC2)cc1 [Luminespib] (partner 0.01 µM) 0.688
